Test system: hepatocytes isolated from Wistar rat liver
Protocol description: Test of inhibition of hepatic production of glucose (isolated hepatocytes, 3 h or 20 h incubation)
Format: cell-based
Condition set: Rattus norvegicus, Hepatocyte, 3 h, hepatic glucose production, rat hepatocytes, 3 h incubation, compound at 50 μM; read-out: HGP % of ctrl @ 50 μM
Counter-ions that a name gives are not always drawn.
Known activity at 50 µM of a selection of compounds
Just the number in %, nothing appended.

Below are worked cases with known answers.
# activity at 50 µM lookup, item O=C(O)Cc1cc(C(=O)c2cccc(Cl)c2)sc1-c1ccccc1
57

Could you share which activity at 50 µM value was measured for O=C(O)Cc1cc(C(=O)CCc2ccccc2)sc1-c1ccc(Cl)cc1 ?
56

What does the data say about its activity at 50 µM? Entry: CCOC(=O)Cc1cc(C(=O)NNC(=O)c2ccncc2)sc1-c1ccc(Cl)cc1
91

Then there is this compound:
Tell me the measured activity at 50 µM of COc1ccc(C(=O)c2cc(CC(=O)NC(=N)N)c(-c3ccc(Cl)c(Cl)c3)s2)cc1 [compound 184, hydrochloride] , please.
68

###

Tested on: hepatocytes isolated from Wistar rat liver
Protocol description: Test of inhibition of hepatic production of glucose (isolated hepatocytes, 3 h or 20 h incubation)
Assay type: cell-based
Condition set: Rattus norvegicus, Hepatocyte, 3 h, hepatic glucose production, rat hepatocytes, 3 h incubation, compound at 50 μM; read-out: HGP % of ctrl @ 50 μM
Value kind: activity at 50 µM (%)
Report only the number, with the unit % understood.

The cases that follow already have their activity at 50 µM on record.
So what does the record say about activity at 50 µM for COc1ccc(C(=O)c2cc(CC(=O)O)c(-c3ccccc3)s2)cc1 ?
90

activity at 50 µM for CCOC(=O)Cc1cc(C(=O)C2CCCCC2)sc1-c1ccc(Cl)cc1 ?
91

Give the measured activity at 50 µM of COc1ccc(C(=O)c2cc(CC(=O)NCCN(C)C)c(-c3ccc(Cl)c(Cl)c3)s2)cc1 .
71

Pending compound:
Fill blank: measured activity at 50 µM of the compound CCOC(=O)Cc1cc(C(=O)c2cccc(OC)c2)sc1-c1ccc(Cl)cc1 is ____.
70

###

Tested on: hepatocytes isolated from Wistar rat liver
Protocol description: Test of inhibition of hepatic production of glucose (isolated hepatocytes, 3 h or 20 h incubation)
Format: cell-based
Condition set: Rattus norvegicus, Hepatocyte, 3 h, hepatic glucose production, rat hepatocytes, 3 h incubation, compound at 50 μM; read-out: HGP % of ctrl @ 50 μM
Catalogue of activity at 50 µM values
Reply numerically in %, unit not repeated.

Answered cases to consult:
Query: activity at 50 µM; subject: COC(=O)Cc1cc(C(=O)C2CCCCC2)sc1-c1ccccc1
72

Returns the measured activity at 50 µM for the input molecule. Input: COc1ccc(C(=O)c2cc(CC(=O)O)c(-c3ccc(Cl)c(Cl)c3)s2)cc1
106

Can you look up the measured activity at 50 µM of COC(=O)Cc1cc(C(=O)c2cccc(OC)c2)sc1-c1ccccc1 for me?
77

Which measured activity at 50 µM value corresponds to COc1cccc(CNC(=O)c2cc(CC(=O)OC(C)C)c(-c3ccc(Cl)cc3)s2)c1 ?
62

Recorded activity at 50 µM of CCONC(=O)Cc1cc(C(=O)c2ccco2)sc1-c1ccc(Cl)cc1 , please.
88

Value lookup for activity at 50 µM; key = CCOC(=O)Cc1cc(C(=O)Cc2ccccc2)sc1-c1ccc(Cl)cc1
69

New cases:
Could you share which activity at 50 µM value was measured for COc1cccc(C(=O)c2cc(CC(=O)O)c(-c3ccc(Cl)cc3)s2)c1 ?
67

Which activity at 50 µM is listed for COc1ccc(-c2sc(C(=O)C3CCCCC3)cc2CC(=O)O)cc1 ?
74

I would be grateful if you could share the reported activity at 50 µM for O=C(O)Cc1cc(C(=O)c2cccc(Cl)c2)sc1-c1ccc(Cl)cc1 .
51

Look up activity at 50 µM: CCOC(=O)Cc1cc(C(=O)c2ccc(Cl)o2)sc1-c1ccc(Cl)cc1
76
